ASSAY OVERVIEW: in vivo
Design: species or system BALB/C nu/nu mice
STUDY CONDITIONS: BALB/C nu/nu, mouse, iv, 40 pmol, total radioactivity, Blood uptake
Starred links: 1 amine or outer side, 2 acyl side, 3 side chain; linkers in the order of their positions; H or OH if unused. Non-standard residues stand in square brackets, D forms with d. Residues, ends and D or L forms follow the SMILES beside them. *: point of attachment. DOTAGA = O=C(O)CN1CCN(CC(=O)O)CCN(C(CCC(=O)*)C(=O)O)CCN(CC(=O)O)CC1; Sta = CC(C)C[C@H](N)[C@@H](O)CC(=O)O; X1 = O=C(CN1CCC(N[*:1])CC1)[*:2]; Sar = CNCC(=O)O
PROPERTY LABEL: tissue uptake at 4 h (%ID/g)
Give a bare numeral; the unit %ID/g is implied.

Here is how some compounds turned out for tissue uptake at 4 h.
CC(C)C[C@H](NC(=O)C[C@H](O)[C@H](CC(C)C)NC(=O)[C@H](Cc1c[nH]cn1)NC(=O)CN(C)C(=O)[C@@H](NC(=O)[C@H](C)NC(=O)[C@H](Cc1c[nH]c2ccccc12)NC(=O)[C@H](CCC(N)=O)NC(=O)[C@@H](Cc1ccccc1)NC(=O)CN1CCC(NC(=O)[C@H](CCCNC(=N)N)NC(=O)[C@H](CCCNC(=N)N)NC(=O)CCC(C(=O)O)N2CCN(CC(=O)O)CCN(CC(=O)O)CCN(CC(=O)O)CC2)CC1)C(C)C)C(N)=O (stereo partly drawn) [[^111In]In-AU-RM26-M4, metal not drawn] ({DOTAGA}-RR[X1][dF]QWAV[Sar]H[Sta]L-NH2) | 0.122
CC(C)C[C@H](NC(=O)C[C@H](O)[C@H](CC(C)C)NC(=O)[C@H](Cc1c[nH]cn1)NC(=O)CN(C)C(=O)[C@@H](NC(=O)[C@H](C)NC(=O)[C@H](Cc1c[nH]c2ccccc12)NC(=O)[C@H](CCC(N)=O)NC(=O)[C@@H](Cc1ccccc1)NC(=O)CN1CCC(NC(=O)COCCOCCNC(=O)CCC(C(=O)O)N2CCN(CC(=O)O)CCN(CC(=O)O)CCN(CC(=O)O)CC2)CC1)C(C)C)C(N)=O (stereo partly drawn) [[^111In]In-AU-RM26-M2, metal not drawn] | 0.003

Turning now to a further compound:
Entry CC(C)C[C@H](NC(=O)C[C@H](O)[C@H](CC(C)C)NC(=O)[C@H](Cc1c[nH]cn1)NC(=O)CN(C)C(=O)[C@@H](NC(=O)[C@H](C)NC(=O)[C@H](Cc1c[nH]c2ccccc12)NC(=O)[C@H](CCC(N)=O)NC(=O)[C@@H](Cc1ccccc1)NC(=O)[C@H](CCCNC(=N)N)NC(=O)COCCOCCNC(=O)CCC(C(=O)O)N1CCN(CC(=O)O)CCN(CC(=O)O)CCN(CC(=O)O)CC1)C(C)C)C(N)=O (stereo partly drawn) [[^111In]In-AU-RM26-M3, metal not drawn] : reported tissue uptake at 4 h = ?
0.024

====

ASSAY OVERVIEW: in vivo
Design: species or system BALB/C nu/nu mice
STUDY CONDITIONS: BALB/C nu/nu, mouse, iv, 40 pmol, total radioactivity, Lungs uptake
Starred links: 1 amine or outer side, 2 acyl side, 3 side chain; linkers in the order of their positions; H or OH if unused. Non-standard residues stand in square brackets, D forms with d. Residues, ends and D or L forms follow the SMILES beside them. *: point of attachment. DOTAGA = O=C(O)CN1CCN(CC(=O)O)CCN(C(CCC(=O)*)C(=O)O)CCN(CC(=O)O)CC1; Sta = CC(C)C[C@H](N)[C@@H](O)CC(=O)O; X1 = O=C(CN1CCC(N[*:1])CC1)[*:2]; Sar = CNCC(=O)O
A collection of compounds and their measured tissue uptake at 4 h

CC(C)C[C@H](NC(=O)C[C@H](O)[C@H](CC(C)C)NC(=O)[C@H](Cc1c[nH]cn1)NC(=O)CN(C)C(=O)[C@@H](NC(=O)[C@H](C)NC(=O)[C@H](Cc1c[nH]c2ccccc12)NC(=O)[C@H](CCC(N)=O)NC(=O)[C@@H](Cc1ccccc1)NC(=O)[C@H](CCCNC(=N)N)NC(=O)COCCOCCNC(=O)CCC(C(=O)O)N1CCN(CC(=O)O)CCN(CC(=O)O)CCN(CC(=O)O)CC1)C(C)C)C(N)=O (stereo partly drawn) [[^111In]In-AU-RM26-M3, metal not drawn] | 0.12 %ID/g

Entry CC(C)C[C@H](NC(=O)C[C@H](O)[C@H](CC(C)C)NC(=O)[C@H](Cc1c[nH]cn1)NC(=O)CN(C)C(=O)[C@@H](NC(=O)[C@H](C)NC(=O)[C@H](Cc1c[nH]c2ccccc12)NC(=O)[C@H](CCC(N)=O)NC(=O)[C@@H](Cc1ccccc1)NC(=O)CN1CCC(NC(=O)COCCOCCNC(=O)CCC(C(=O)O)N2CCN(CC(=O)O)CCN(CC(=O)O)CCN(CC(=O)O)CC2)CC1)C(C)C)C(N)=O (stereo partly drawn) [[^111In]In-AU-RM26-M2, metal not drawn] : reported tissue uptake at 4 h = ?
0.05 %ID/g

Entry CC(C)C[C@H](NC(=O)C[C@H](O)[C@H](CC(C)C)NC(=O)[C@H](Cc1c[nH]cn1)NC(=O)CN(C)C(=O)[C@@H](NC(=O)[C@H](C)NC(=O)[C@H](Cc1c[nH]c2ccccc12)NC(=O)[C@H](CCC(N)=O)NC(=O)[C@@H](Cc1ccccc1)NC(=O)CN1CCC(NC(=O)[C@H](CCCNC(=N)N)NC(=O)[C@H](CCCNC(=N)N)NC(=O)CCC(C(=O)O)N2CCN(CC(=O)O)CCN(CC(=O)O)CCN(CC(=O)O)CC2)CC1)C(C)C)C(N)=O (stereo partly drawn) [[^111In]In-AU-RM26-M4, metal not drawn] ({DOTAGA}-RR[X1][dF]QWAV[Sar]H[Sta]L-NH2) : reported tissue uptake at 4 h = ?
0.2 %ID/g
